- System: LNCaP-Vancouver prostate cells
- assay remarks: In vitro LNCaP Vancouver prostate cell proliferation assay in lipid reduced medium
- Format: cell-based
- experimental context: read-out: pIC50 LNCaP_Vancouver prostate cell (converted)
recorded metric: IC50 (nM)

Recorded IC50, per entry:
- Cc1cc2cc(-c3ccc(C4=NC5(CC5)C(=O)N4CC4CN(C(=O)C5CC5)C4)c(F)c3)ccc2o1: 1150
- Cc1cc(-c2ccc(-c3cnn(C(C)C)c3)cc2)ccc1C1=NC2(CC2)C(=O)N1CC1CN(C(=O)C2CC2)C1: 363
- O=C(C1CC1)N1CC[C@@H](CN2C(=O)C3(CC3)N=C2c2ccc(-c3ccc4cc[nH]c4c3)cn2)C1: 2820
- O=C(C1CC1)N1CC[C@@H](CN2C(=O)C3(CC3)N=C2c2ccc(-c3nc4ccccc4[nH]3)cc2)C1: 5370
- Cc1cc(-c2ccc3cc(F)ccc3c2)ccc1C1=NC2(CC2)C(=O)N1CC1CN(C(=O)C2CCO2)C1 (stereo not drawn): 240
- O=C([C@H]1CCCO1)N1CC[C@@H](CN2C(=O)C3(CCOC3)N=C2c2ccc(-c3ccc4occc4c3)cc2)C1 (stereo partly drawn): 2950
- COc1nccc2cc(-c3ccc(C4=NC5(CC5)C(=O)N4C[C@@H]4CCN(C(=O)C5CC5)C4)cc3)ccc12: 2040
- O=C(C1CC1)N1CC[C@@H](CN2C(=O)C3(CC3)N=C2c2ccc(-c3ccc4[nH]ccc4c3)s2)C1: 2570
- Nc1cc(-c2ccc(C3=NC4(CC4)C(=O)N3C[C@@H]3CCN(C(=O)C4CC4)C3)cc2)ccn1: 2040
- Cc1cc(-c2ccc(-c3cnn(C)c3)cc2)ccc1C1=NC2(CC2)C(=O)N1C[C@@H]1CCN(C(=O)C2(C)CC2)C1: 12.3

1: Cn1ncc2cc(-c3ccc(C4=NC5(CC5)C(=O)N4C[C@@H]4CCN(C(=O)C5(O)CC5)C4)c(F)c3)ccc21
2: O=C(N1CCCC1)N1CC(CN2C(=O)C3(CCOC3)N=C2c2ccc(-c3ccc4cccnc4c3)cc2)C1 (stereo not drawn)
Prompt: Could you determine which record has the numerically smaller IC50? Candidates: 1 and 2 Please identify the chosen entry by its label.
Response: 1
